System: Human pancreatic cancer cell CFPAC-1
protocol summary: CCK-8 cell proliferation assay, CFPAC-1
Type: cell-based
condition: CFPAC-1 cells, 72 hrs with drug, CCK-8, OD 450 nm
Quick rule for you: IC50 under 40 nM gets Fulfilled, anything else gets Not fulfilled.

A record lists `N#CN=C(NCCCCCN1CCN(C(=O)c2cccs2)CC1)Nc1cccnc1` . Is its IC50 below 40 nM?
Fulfilled

Does this molecule meet the criterion IC50 < 40 nM? N#CN=C(NCCCCCCC1CCN(C(=O)c2cc3ccccc3o2)C1)Nc1ccncc1 (centres unmarked)
Not fulfilled

Would you kindly verify if IC50 of `N#CN=C(NCCCCCN1CCN(C(=O)c2ccc[nH]2)CC1)Nc1ccncc1` is strictly less than 40 nM?
Not fulfilled

# check: IC50 < 40 nM for N#CN=C(NCCCCCCC1CCN(C(=O)c2ccco2)C1)Nc1cc(Cl)nc(Cl)c1 (centres unmarked)
Not fulfilled

Hi there! Is IC50 for `N#CN=C(NCCCCCN1CCN(C(=O)c2sccc2F)CC1)Nc1ccncc1` below 40 nM, do you know?
Not fulfilled

Find out if reported IC50 for N#CN=C(NCCCCCC1CCN(C(=O)C2CCCS2)C1)Nc1ccncc1 (centres unmarked) is less than 40 nM
Fulfilled

Please let me know if N#CN=C(NCCCCCCC1CCN(C(=O)C2CCCS2)C1)Nc1cccnc1 (centres unmarked) shows IC50 below 40 nM.
Not fulfilled

Does the reported IC50 of the following molecule sit strictly below 40 nM? N#CN=C(NCCCCCC1CCN(C(=O)c2[nH]ccc2F)C1)Nc1ccncc1 (centres unmarked)
Fulfilled

Say whether its IC50 is strictly beneath 40 nM. Entry: N#CN=C(NCCCCCC1CCN(C(=O)c2occc2F)C1)Nc1ccncc1 (centres unmarked)
Fulfilled

Please indicate whether the reported IC50 of N#CN=C(NCCCCCCC1CCN(C(=O)c2cc3ccccc3[nH]2)C1)Nc1ccncc1 (centres unmarked) is strictly below 40 nM.
Not fulfilled

Determine whether this molecule shows IC50 lower than 40 nM (ties excluded): N#CN=C(NCCCCCN1CCN(C(=O)C2CCCN2)CC1)Nc1ccncc1 (centres unmarked)
Fulfilled

Dear colleague, could you confirm whether IC50 of N#CN=C(NCCCCCCC1CCN(C(=O)c2ccccc2)C1)Nc1cccnc1 (centres unmarked) falls below 40 nM? Thanks.
Not fulfilled

Here's an entry: `N#CN=C(NCCCCCN1CCN(C(=O)c2ccccc2)CC1)Nc1ccncc1` . Is its IC50 below 40 nM?
Fulfilled

Determine if N#CN=C(NCCCCCCC1CCN(C(=O)c2ccc[nH]2)C1)Nc1cccnc1 (centres unmarked) shows IC50 strictly lower than 40 nM.
Not fulfilled

IC50 strictly < 40 nM for this molecule? `N#CN=C(NCCCCCN1CCN(C(=O)c2ccccc2)CC1)Nc1cccnc1`
Not fulfilled

Take the molecule N#CN=C(NCCCCCCC1CCN(C(=O)c2cccs2)C1)Nc1cccnc1 (centres unmarked) and say whether its IC50 is less than 40 nM.
Fulfilled

Given `N#CN=C(NCCCCCN1CCN(C(=O)c2cccs2)CC1)Nc1ccncc1` , is recorded IC50 strictly lower than 40 nM?
Fulfilled

Lab note: IC50 threshold 40 nM. Does this molecule come in strictly under it? `COc1cccc(OC)c1C(=O)N1CCN(CCCCCNC(=NC#N)Nc2cccnc2)CC1`
Not fulfilled

Is IC50 of N#CN=C(NCCCCCC1CCN(C(=O)c2ccccc2)C1)Nc1cccnc1 (centres unmarked) strictly below 40 nM?
Fulfilled

Regarding N#CN=C(NCCCCCC1CCN(C(=O)c2cccs2)C1)Nc1ccncc1 (centres unmarked) , kindly confirm whether its IC50 is beneath 40 nM.
Fulfilled

Confirm or reject: IC50 of N#CN=C(NCCCCCC1CCN(C(=O)c2ccco2)C1)Nc1ccncc1 (centres unmarked) lies strictly below 40 nM
Fulfilled
